experiment: Chemical stability in 0.01 mM phosphate buffered saline assessed as purity of parent compound after 6 hrs by HPLC analysis; format: physicochemical; conditions: read-out: Activity
assayEndpoint: remaining at 6 h (%)
Write the answer as a number in %, unit excluded.

Which remaining at 6 h value belongs to "CCN(CC)C(=O)c1nc2ccccc2c(-c2ccccc2)c1CI" ?
94

----------
Entries and their logP values follow.
assay: Lipophilicity, log P by HPLC method; conditions: octanol/water
// keep it numeric: no unit symbol after the value

CN(CCc1ccccc1)C(=O)c1nc2ccccc2c(-c2ccccc2)c1CI	5.41
CN(Cc1cccc(I)c1)C(=O)c1cc(-c2ccc(F)cc2)c2ccccc2n1	5.16
CCC(C)N(C)C(=O)c1cc2ccccc2c(-c2ccccc2Cl)n1 (centres undefined)	3.85

Which logP value belongs to "Cc1c(C(=O)N(C)Cc2ccc(I)cc2)nc2ccccc2c1-c1ccccc1" ?
5.12
